Molecular target: Aryl hydrocarbon receptor (Homo sapiens) (UniProt P35869)
Sequence (P35869 whole entry, looked up): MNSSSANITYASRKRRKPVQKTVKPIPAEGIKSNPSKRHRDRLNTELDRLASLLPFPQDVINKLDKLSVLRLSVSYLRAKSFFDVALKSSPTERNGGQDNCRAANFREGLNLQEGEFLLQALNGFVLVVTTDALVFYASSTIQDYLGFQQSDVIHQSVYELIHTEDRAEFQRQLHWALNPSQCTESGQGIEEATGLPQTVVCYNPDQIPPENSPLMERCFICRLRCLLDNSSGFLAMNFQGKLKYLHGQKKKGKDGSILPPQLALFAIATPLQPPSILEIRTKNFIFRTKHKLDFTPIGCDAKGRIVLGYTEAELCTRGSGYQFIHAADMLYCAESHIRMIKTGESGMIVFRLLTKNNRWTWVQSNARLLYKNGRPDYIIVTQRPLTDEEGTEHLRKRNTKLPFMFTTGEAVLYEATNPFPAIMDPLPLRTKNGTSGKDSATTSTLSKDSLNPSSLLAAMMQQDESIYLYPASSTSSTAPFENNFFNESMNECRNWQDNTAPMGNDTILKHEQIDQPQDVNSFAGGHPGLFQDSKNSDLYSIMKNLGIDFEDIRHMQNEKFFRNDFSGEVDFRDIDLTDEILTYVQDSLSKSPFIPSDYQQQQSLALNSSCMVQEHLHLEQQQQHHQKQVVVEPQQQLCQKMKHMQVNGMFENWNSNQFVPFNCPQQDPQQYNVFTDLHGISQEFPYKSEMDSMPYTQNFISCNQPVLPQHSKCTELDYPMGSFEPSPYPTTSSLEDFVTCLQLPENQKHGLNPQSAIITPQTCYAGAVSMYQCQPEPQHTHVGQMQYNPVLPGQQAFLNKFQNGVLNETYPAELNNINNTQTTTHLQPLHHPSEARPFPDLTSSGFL
Assay: qHTS assay to identify small molecule that activate the aryl hydrocarbon receptor (AhR) signaling pathway (AID 743085); note: nearly all actives have a fitted effect of over 15% in size;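 for activation: HG2L7.5c1 human HepG2 liver cells with stably integrated DRE-driven firefly reporter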
Details: HepG2 AhR-luc (HG2L7.5c1), luciferase, 24 h; series mostly up to 70.3 µM
From the text: U.S. Tox21 Program National Center for Advancing Translational Sciences [NCATS] NIH Chemical Genomics Center [NCGC] U.S. Environmental Protection Agency [EPA] National Institutes of Environmental Health Sciences [NIEHS] National Toxicology Program [NTP] U.S. Food and Drug Administration [FDA] Tox21 Assay overview: The Aryl hydrocarbon Receptor (AhR), a member of the family of basic helix-loop-helix transcription factors, is crucial to adaptive responses to environmental changes. […]
Results filed as inconclusive are left out. Calls of active or inactive are those of the source. Calls come from the whole dose curve; as a rule, active = well fitted activation curve with a large enough effect in the repeat runs; inconclusive = weak or mixed curves; inactive = no such curve, though single readings can be large or run the other way.
Answer with one of the outcomes active, inactive

Exam item: # outcome recorded in this test, key = S=C1NC=NC2N=CNC12 (centres undefined)
Marked response: active

Exam item: # outcome recorded in this test, key = C=C1[C@H](CO)[C@@H](O)C[C@@H]1n1cnc2c(=O)[nH]c(N)nc21
Marked response: inactive

Exam item: # outcome recorded in this test, key = CC(O)(c1ccc(Cl)cc1)c1ccc(Cl)cc1
Marked response: inactive

Exam item: # outcome recorded in this test, key = CC/C=C\C/C=C\C/C=C\C/C=C\C/C=C\CCCC(=O)O
Marked response: inactive

Exam item: # outcome recorded in this test, key = O=C(N[C@H](CO)[C@H](O)c1ccc([N+](=O)[O-])cc1)C(Cl)Cl
Marked response: inactive

Exam item: # outcome recorded in this test, key = C/C(=C\C(=O)OCCCCCCCCC(=O)O)C[C@@H]1OC[C@H](C[C@@H]2O[C@H]2[C@@H](C)[C@H](C)O)[C@@H](O)[C@H]1O
Marked response: inactive

Exam item: # outcome recorded in this test, key = NC(=O)[C@@H]1CCCN1C(=O)[C@H](Cc1cnc[nH]1)NC(=O)[C@@H]1CCC(=O)N1
Marked response: inactive

Exam item: # outcome recorded in this test, key = CCC1OC(=O)C[C@@H](O)[C@H](C)[C@@H](O[C@@H]2O[C@H](C)C[C@H](N(C)C)[C@H]2O)[C@@H](CC=O)C[C@@H](C)C(=O)/C=C/[C@]2(C)OC2C1C (some centres undefined)
Marked response: inactive

Exam item: # outcome recorded in this test, key = COc1cc(/C=C/C(=O)CC(=O)/C=C/c2ccc(O)c(OC)c2)ccc1O
Marked response: inactive
